Activity for assorted compounds
- System: Tobacco mosaic virus
- assay.notes: Antiviral activity against TMV
- Type: functional
- Parameters: concentration or dose not given beside the values
Give the number first and the unit second.

structure.string	Activity
CCOC(=O)c1cn(-c2n[nH]c(C(=O)OC)n2)nn1	20%

// field: Activity; key: COC(=O)c1n[nH]c(-n2cc(-c3ccc(C)cc3)nn2)n1 ; value = 10%

// field: Activity; key: NC(=O)c1n[nH]c(-n2cc(C3=CCCCC3)nn2)n1 ; value = 7%

// field: Activity; key: COC(=O)c1n[nH]c(-n2cc(C3(O)CCCCC3)nn2)n1 ; value = 17%

// field: Activity; key: COC(=O)c1n[nH]c(-n2cc(C3(O)CCCC3)nn2)n1 ; value = 10%

// field: Activity; key: Cc1ccc(-c2cn(-c3n[nH]c(C(N)=O)n3)nn2)cc1 ; value = 6%

* * *

- Tested on: Tobacco mosaic virus
- assay.notes: Antiviral activity against TMV
- Format: functional
- Design: concentration or dose not given beside the values
measure.name: Activity
Give the number first and the unit second.

Please review the following examples before continuing.
structure.string	Activity
CCCCCc1ccc(-c2cn(-c3n[nH]c(C(=O)OC)n3)nn2)cc1	23%
COC(=O)c1n[nH]c(-n2cc(COC(C)=O)nn2)n1	36%
COC(=O)c1n[nH]c(-n2cc(-c3ccccc3)nn2)n1	63%
NC(=O)c1n[nH]c(-n2cc(-c3ccccc3)nn2)n1	0%

// field: Activity; key: NC(=O)c1n[nH]c(-n2cc(C3(O)CCCCC3)nn2)n1 ; value = 0%

// field: Activity; key: NC(=O)c1n[nH]c(-n2cc(CO)nn2)n1 ; value = 8%

// field: Activity; key: NC(=O)c1n[nH]c(-n2cc(C3(O)CCCC3)nn2)n1 ; value = 13%

// field: Activity; key: O=C1NCNC(=O)N1 ; value = 45%

// field: Activity; key: COC(=O)c1n[nH]c(-n2cc(-c3ccc(F)cc3)nn2)n1 ; value = 12%

// field: Activity; key: COc1ccc(-c2cn(-c3n[nH]c(C(N)=O)n3)nn2)cc1 ; value = 0%

// field: Activity; key: NC(=O)c1cn(-c2n[nH]c(C(N)=O)n2)nn1 ; value = 0%

* * *

- Tested on: Tobacco mosaic virus
- assay.notes: Antiviral activity against TMV
- Type: functional
- Parameters: concentration or dose not given beside the values
measure.name: Activity (%)
Form entry: value (%) — number only.

// field: Activity; key: COC(=O)c1n[nH]c(-n2cc(-c3ccc(OC)cc3)nn2)n1 ; value = 15

// field: Activity; key: COC(=O)c1n[nH]c(-n2cc(C3=CCCCC3)nn2)n1 ; value = 75

// field: Activity; key: CCCCCc1ccc(-c2cn(-c3n[nH]c(C(N)=O)n3)nn2)cc1 ; value = 28

// field: Activity; key: NC(=O)c1n[nH]c(-n2cc(-c3ccc(F)cc3)nn2)n1 ; value = 0

// field: Activity; key: NC(=O)c1ncn([C@@H]2O[C@H](CO)[C@@H](O)[C@H]2O)n1 ; value = 49

Sourced from ChEMBL document CHEMBL1147696
